# method: Acute toxicity
# experimental-context: mouse, in vivo, po
reported-metric: LD50

>>> measured_result("O=C(N[C@H](CO)[C@H](O)c1ccc([N+](=O)[O-])cc1)C(Cl)Cl [Chloramphenicol, reference compound]")
"2000 to 3000 mg/kg"

* * *

# method: in vivo
# experimental-context: mouse, ip
reported-metric: LD50

>>> measured_result("O=C(N[C@H](CO)[C@H](O)c1ccc([N+](=O)[O-])cc1)C(F)F [Fluoramphenicol]")
"2000 to 3000 mg/kg"
